# System: ML-2
# Experimental Protocol: cells
# Design: species or system AML cell lines (8); Secondary HTS, 10-point dose-response in triplicate, Cell Titer Glo viability, four-parameter fit EC50
# Cond: Homo sapiens, ML-2, 72 h, read-out: ML-2
Quantity Name: EC50

>>> measurement("CO[C@H]1C[C@@H]2CC[C@@H](C)[C@@](O)(O2)C(=O)C(=O)N2CCCC[C@H]2C(=O)O[C@H]([C@H](C)C[C@@H]2CC[C@@H](O)[C@H](OC)C2)CC(=O)[C@H](C)/C=C(\\C)[C@@H](O)[C@@H](OC)C(=O)[C@H](C)C[C@H](C)/C=C/C=C/C=C/1C [SIROLIMUS]")
"> 10 µM"
>>> measurement("COc1ccc2nc3n[nH]c(C)c3c(NCCOCCO)c2c1 [SJ000832935, SCH 51344]")
"> 10 µM"

Which value of EC50 has been reported for C[C@]1(O)C[C@@H](c2nc(-c3ccc4ccc(-c5ccccc5)nc4c3)c3c(N)nccn32)C1 [LINSITINIB] in the records?
> 10 µM

Which EC50 is reported for this molecule? COC(=O)[C@H](CC(C)C)NC(=O)c1ccc(NCc2cnc[nH]2)cc1-c1cccc2ccccc12 [SJ000803715, GGTI-2147]
> 10 µM

---

# Test system: U937
# Design: species or system AML cell lines (8); Primary HTS, single concentration about 10 uM, Cell Titer Glo viability; log10 luminescence, per cent inhibition relative to cycloheximide control
# Cond: 72 h, relative to cycloheximide control, log10 luminescence; inhibitor
Quantity Name: U937 %inh (%)
# number only, unit % dropped from output

>>> measurement("CC(C)=CCC/C(C)=C/CC/C(C)=C/CO")
-0.4236

Query: U937 %inh; subject: N#Cc1cccc(C(=O)c2cnn(-c3ccc(F)cc3)c2N)c1
2.317

Which U937 %inh is reported for this molecule? COc1ccc(O)c(C(=O)c2ccc(C(=O)O[C@@H]3CCCNC[C@H]3NC(=O)c3ccncc3)cc2)c1F
74.66

---

# System: CHRF288-11
# Design: species or system AML cell lines (8); Primary HTS, single concentration about 10 uM, Cell Titer Glo viability; log10 luminescence, per cent inhibition relative to cycloheximide control
# Cond: 72 h, relative to cycloheximide control, log10 luminescence; inhibitor
Quantity Name: CHRF288-11 %inh (%)
Write the answer as a number in %, unit excluded.

Field: example entries. Status: answers known.
>>> measurement("CCCN1CCC(c2ccc(Nc3nc(Nc4cc(F)ccc4C(N)=O)c4cc[nH]c4n3)c(OC)c2)CC1 [SJ000573328-1, U23536/58/1]")
106.3
>>> measurement("CCn1c(-c2nonc2N)nc2c(C#CC(C)(C)O)nc(CN3CCCC3)cc21 [SJ000573314-1, MR206418-021A1]")
4.422
>>> measurement("CC(=O)N[C@@H](Cc1ccc(OP(=O)(O)O)cc1)C(=O)N[C@H]1CCC(=O)N2CCC[C@@H](C(=O)NCc3cccc4ccccc34)N2C1=O [SJ000581126-1]")
5.32
>>> measurement("CN(c1ccc(NC(=O)Nc2c(Cl)cccc2Cl)cc1)c1ccnc(Nc2cccc(CS(C)(=O)=O)c2)n1 [SJ000573099-1, U17983/31/1]")
15.56
>>> measurement("COc1ccccc1CN=C1NC(=O)/C(=C/c2ccc3ncccc3c2)S1 [SJ000581141-1]")
-2.393

Param item = COc1cc2ncn(-c3cc(OCc4ccccc4Cl)c(C(N)=O)s3)c2cc1OC [SJ000573023-1, U22436/143/1] ; retrieve measured CHRF288-11 %inh.
71.75

Quick check: CHRF288-11 %inh of Fc1ccc(-c2ncn(C3CCNCC3)c2-c2ccnc(Oc3ccccc3)n2)cc1 [SJ000573013-1, JB19236-077B1] ?
6.56

Consider the molecule Cc1ccc(O)cc1Nc1ccnc2cc(-c3ccccn3)ccc12 [SJ000573269-1] and give its measured CHRF288-11 %inh.
60.6

Data request, read-out CHRF288-11 %inh, for CNC(=O)c1cncc(/C=C/c2ccccc2Cl)c1 [SJ000573070-1, U12068/61/1]
33.2

Field request: CHRF288-11 %inh | item: O=C1NC(=O)C(c2cccc(Cl)c2)=C1Nc1ccc(Cl)c(C(=O)O)c1 [SJ000573179-1, RS98844-062A1]
-5.305

If you can, please state the reported CHRF288-11 %inh value of N#Cc1ccc(C(=O)c2cnn(-c3ccc(F)cc3)c2N)cc1 [SJ000580987-1] .
-3.381
